The reported numbers originate from the RNAGym collection of RNA variant scans (doi:10.1073/pnas.2313332121).

B1: TPR t1 (parent)
chain: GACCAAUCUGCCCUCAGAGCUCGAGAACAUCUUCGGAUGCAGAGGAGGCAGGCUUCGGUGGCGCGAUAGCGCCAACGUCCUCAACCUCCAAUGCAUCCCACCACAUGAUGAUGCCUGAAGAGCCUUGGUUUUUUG

variants of: B1; assay: polymerase ribozyme fitness, log enrichment relative to wild type (log ratio); higher = more active; in vitro selection for triplet polymerase activity

variant label	polymerase ribozyme fitness (log ratio)
A41U C76A	-1.89
C56G G63U	-4.87
C56A	-0.243
A6C A24G A37U G48C G69C C79G C85G C101A C124U	-5.82
A6G C13G G51A C79G C88A G93C A108U C115U C124U	-7.39
A5C A37G C88A	-3.94
C8U G61U C70G	-4.76
G45U U116G	-3.76
A29U C62U C89G	-3
G47U A105G	-3.69
A27U C49U	-3.64
U21A G42A A46U G60A G120A	-2.58
C13G G48U C64U	-2.15
U7C C34A G44C A84U	-4.89
A75U A95C U116C U125C	-3.04
C4U C40U	-1.42
G61C C97A C124G	-5.48
A74G C89G	-1.41
A6C A41U A43G G57U U130G	-3.78
G61A C88U C89A	-1.82
C89U A105G	-2.76
C11U G122A	-1.12
U55G C85A	-1.66
G69U G117C	-2.27
C20U C28G G45A G52U G69U C114U	-5.61
U81G C89G A121G	-4.14
G10U C62U C72A C88U C89G A121G U132C	-1.87
A41C C80A G107A G117U U129C	-7.66
C28G G57C G63C C73U A83C C123A	-5.12
A91U G127U	-3.19
A41U G45U U78C	-2.76
C53G U112A	0.666
C20G G117U	-5.16
U32A U38C G69C A95U	-6.24
G63U U92A U96A G113C	-3.99
C79U G93U	-1.77
G36U C79A	-3.02
C12A A68G A84C	-4.19
G36A U106A C124A U129G	0.262
C12G A119U	0.00185
C12A G117U	-1.72
G60A G69U C72U C86G A118U U129A	-5.04
G57C C97U G113C	-3.16
A18C G63C	-4
U7C G69C A90G G113C	-3.11
C13G G48U C53A U59G	-1.72
